# experimentDescription: chemical genetic growth profiling, strain panel (AID 1159580);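 further: tested at 20 µM; growth read once vehicle control cultures reached saturation at 30 °C; 1 = growth at the plate median or of vehicle wells; lower values mean less growth of the strain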
# protocolConditions: S. cerevisiae deletion strains, growth OD, locus YHR082C, strain KSP1, active compounds read low
Out of some 5,500 compounds screened, about 2,000 (36%) were called active. Roughly 18% stayed inconclusive and do not appear here. The list shows a part of the results.
# normalized growth binned as class A = under 0.6, class B = from 0.6 up to 1, class C = 1 and over

Consider the following illustrative entries.
C/C(=N/NC(N)=S)c1csc(-c2ccccc2)n1: class C
ONC(=Nc1ccccc1Cl)c1ccccc1Cl: class B
O=C1Nc2ccccc2/C1=C\c1c[nH]c2ccccc12: class A
CC(C)(C)NC(=S)N/N=C\c1cc(Br)c(O)c(Br)c1: class B
CN(C)/C=C1\CSc2ccc(Cl)cc2C1=O: class B

Determine which band this molecule sits in: COc1ccc(Br)c(C(=O)/C(C#N)=C/c2cccs2)c1
class A

# repeat for O=C1OC(c2ccccc2)=C/C1=C/c1ccccc1
class A

Entry to check: N/C(=N/OC(=O)c1cnn(-c2ccc([N+](=O)[O-])cc2)c1C(F)(F)F)c1ccc(Cl)cc1
class C

And O=C(OCc1ccccc1Br)c1cc([N+](=O)[O-])cc([N+](=O)[O-])c1 ?
class B

----------
# experimentDescription: chemical genetic growth profiling, strain panel (AID 1159580)
# protocolConditions: S. cerevisiae deletion strains, growth OD, locus YJL134W, strain LCB3
Screen size: about 5,500 compounds; about 2,000 (36%) were called active. Inconclusive results (about 18%) are left out. No stated cut-off is given here; in the data, active means normalized growth mostly below about 0.91 (no sharp cut-off); inconclusive means no clear call, values can overlap the other calls; inactive means mostly above about 0.92. Some of the results follow.
Please state which outcome applies, choosing from active, inactive

Previously resolved entries follow.
NC(=O)c1ccccc1O: inactive
NC[C@H]1O[C@H](O[C@H]2[C@H](O)[C@@H](O[C@H]3O[C@H](CO)[C@@H](O)[C@H](N)[C@H]3O)[C@H](N)C[C@@H]2N)[C@H](N)[C@@H](O)[C@@H]1O: inactive
CO[C@@H]1C[C@H](O[C@H]2CC[C@]3(C)C4CC[C@]5(C)[C@@H](C6=CC(=O)OC6)CC[C@]5(O)[C@@H]4CC[C@]3(O)C2)O[C@H](C)[C@@H]1O (some centres undefined): inactive

Would you kindly look at the next entry?
Could you check what this test reported for O=C(/C=C(\O)c1ccccc1)c1ccccc1O ?
active

----------
# experimentDescription: chemical genetic growth profiling, strain panel (AID 1159580)
# protocolConditions: S. cerevisiae deletion strains, growth OD, locus YPL051W, strain arl3, active compounds read low
In all, about 5,500 compounds went through this assay and about 2,000 (36%) were called active. Another 18% or so got no clear call; they are omitted. Some of the results follow.
This listing pairs compounds with measured normalized growth.
Form rule: numeric answer, no unit written next to it.

CC1(C)S[C@@H]2[C@H](NC(=O)[C@@H](N)c3ccc(O)cc3)C(=O)N2[C@H]1C(=O)O: 1.01

// query normalized growth value for entry C[C@@H]1CC[C@@]23CCC4(C)[C@@](C=CC5[C@@]6(C)CC[C@H](O)C(C)(C)C6CC[C@]54C)(OC2=O)C3[C@H]1C (stereo partly drawn)
1.02

Next record, please: CC(=O)O[C@@H]1CC2C(C)(CC[C@H](O)C2(C)C)C2CC[C@]3(C)C(=CC(=O)O[C@H]3c3ccoc3)C21C (stereo partly drawn)
0.974

----------
# experimentDescription: chemical genetic growth profiling, strain panel (AID 1159580)
# protocolConditions: S. cerevisiae deletion strains, growth OD, locus YKL190W, strain CNB1, active compounds read low
Screen size: about 5,500 compounds; about 2,000 (36%) were called active. Another 18% or so got no clear call; they are omitted. Some of the results follow.
Listing: normalized growth of selected molecules
Enter the number alone.

Some entries whose results are on file:
COC1=CC(C)[C@@H]2C[C@H]3OC(=O)C[C@H]4C(C)=C(OC)C(=O)C([C@@]34C)[C@@]2(C)C1=O (stereo partly specified): 1.01
Nc1nc(/C(=C/CC(=O)O)C(=O)N[C@@H]2C(=O)N3C(C(=O)O)=CCS[C@H]23)cs1: 1.01
CC(=O)N1CCN(c2ccc(OCC3CO[C@](Cn4ccnc4)(c4ccc(Cl)cc4Cl)O3)cc2)CC1 (stereo partly specified): 0.0638
CN(C)/C=C1\CSc2ccc(F)cc2C1=O: 0.0876
Cc1ccc(S(=O)(=O)N2CCC(N)=N2)cc1: 1

# lookup: normalized growth of CCCc1nn(C)c2c(=O)[nH]c(-c3cc(S(=O)(=O)N4CCN(C)CC4)ccc3OCC)nc12
1.02

How about COc1cc(NC(=S)N2CCN(c3ccccc3OC)CC2)c(OC)cc1Cl ?
1.02

Now consider CC(=O)Oc1ccccc1C(=O)Oc1ccccc1C(=O)O and answer again.
1

Thanks! And Cc1ccc(C(C)C)c(O)c1C(=O)O ?
0.987

Query Clc1ccc2ocnc2c1 next
1.02

Same thing, different molecule: CCCCC(=O)O[C@]1(C(=O)CO)[C@@H](C)CC2C3CCC4=CC(=O)C=C[C@]4(C)[C@@]3(F)C(O)C[C@@]21C (stereo partly specified)
0.999

Same for COC1CC(O[C@H]2CC[C@]3(C=O)C4CC[C@]5(C)C(C6=CC(=O)OC6)CC[C@]5(O)C4CC[C@]3(O)C2)OC(C)C1O (stereo partly specified)
1.02

Next molecule: CC(=O)N1CCCC1C(=O)O (stereo unspecified)
1.01

Try COc1c(O)cc2c(c1O)[C@H]1O[C@H](CO)[C@@H](O)[C@H](O)[C@@H]1OC2=O next.
0.975

Again, but for CN1c2ccccc2C(=O)/C(=N/Nc2ccccc2F)S1(=O)=O
1

Would you mind doing Cc1ccc(Sc2nc(C)c([N+](=O)[O-])c(C)c2C#N)cc1 as well?
0.977

Same lookup for COc1cccc2c1CCC1=CC(=O)CC[C@@]12C , please.
1.01

And for COC(=O)C(N)CS (stereo unspecified) ?
0.998

Field entry: CCC(=O)O[C@]1(C(=O)CCl)[C@@H](C)CC2C3CCC4=CC(=O)C=C[C@]4(C)[C@@]3(F)[C@@H](O)C[C@@]21C (stereo partly specified)
0.981

Cool, now COc1ccc(Br)c(-c2nnc(-c3ccccc3[N+](=O)[O-])o2)c1
1.01

Here is the next molecule: Cc1nnsc1C(=O)O/N=C1/CCSc2ccc(F)cc21
0.98

----------
# experimentDescription: chemical genetic growth profiling, strain panel (AID 1159580);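 further: tested at 20 µM; growth read once vehicle control cultures reached saturation at 30 °C; 1 = growth at the plate median or of vehicle wells; lower values mean less growth of the strain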
# protocolConditions: S. cerevisiae deletion strains, growth OD, locus YDL134C, strain PPH21, active compounds read low
The campaign covered roughly 5,500 compounds. About 2,000 (36%) were called active. Inconclusive results (about 18%) are left out. Some of the results follow.
Please note: normalized growth exactly at 1 is Not satisfied. Only values below 1 get Satisfied.

Lab note: confirm whether the reported normalized growth for this compound is below 1, equality not counting. compound: O=[N+]([O-])c1cnc2ccccn12
Not satisfied

Record: CC1Cc2ccccc2N1NC(=O)c1ccc(Cl)c(S(N)(=O)=O)c1 (configuration not stated)
Not satisfied

What would you report for O=C(/C=C(\O)c1ccccc1)c1ccccc1O ?
Satisfied

Now the compound CCc1ccc2c(O)c3c(cc2c1C(=O)OC)C(=O)c1c(O)ccc(O)c1C3=O
Satisfied

Now try O=c1c(O)cccc2c(C3Oc4cc(O)cc(O)c4CC3O)cc(O)c(O)c12 (configuration not stated) .
Satisfied

----------
# experimentDescription: chemical genetic growth profiling, strain panel (AID 1159580);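 further: tested at 20 µM; growth read once vehicle control cultures reached saturation at 30 °C; 1 = growth at the plate median or of vehicle wells; lower values mean less growth of the strain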
# protocolConditions: S. cerevisiae deletion strains, growth OD, locus YOR265W, strain rbl2, active compounds read low
In all, about 5,500 compounds went through this assay and about 2,000 (36%) were called active. Another 18% or so got no clear call; they are omitted. Some of the results follow.
Recorded normalized growth, one value per entry.
Give the figure only, with no unit attached.

Reference set, count: 3
NC(=O)c1cc([N+](=O)[O-])cc([N+](=O)[O-])c1: 1
Cc1ccc(-c2nc3ccc(C)cn3c2CC(=O)N(C)C)cc1: 0.969
CC(=O)OCC(=O)[C@@]1(O)CCC2C3C[C@H](C)C4=CC(=O)C=CC4(C)C3[C@@H](O)CC21C (some centres undefined): 1.01

Consider the compound shown here: C[C@H]1O[C@@H](O[C@H]2[C@@H](O)C[C@H](O[C@H]3[C@@H](O)C[C@H](O[C@H]4CC[C@]5(C)C6C[C@@H](O)[C@]7(C)[C@@H](C8=CC(=O)OC8)CC[C@]7(O)C6CC[C@@H]5C4)O[C@@H]3C)O[C@@H]2C)C[C@H](O)[C@@H]1O (some centres undefined) What is its recorded normalized growth?
0.993

Also C[C@]12CCC3C(CC[C@]4(O)C[C@@H](O)CC[C@]34C=O)[C@@]1(O)CCC2C1=CC(=O)OC1 (some centres undefined) ?
0.975

----------
# experimentDescription: chemical genetic growth profiling, strain panel (AID 1159580);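 further: tested at 20 µM; growth read once vehicle control cultures reached saturation at 30 °C; 1 = growth at the plate median or of vehicle wells; lower values mean less growth of the strain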
# protocolConditions: S. cerevisiae deletion strains, growth OD, locus YIR030C, strain dcg1
Among all 5,500 compounds or so, about 2,000 (36%) were called active. About 18% were inconclusive and are not listed. Cut-off read from the data, not from the text of the source: active = normalized growth mostly below about 0.91 (no sharp cut-off); inconclusive = no clear call, values can overlap the other calls; inactive = mostly above about 0.92. The list shows a part of the results.
Answer with one of the outcomes active, inactive

CO[C@@H]1[C@@H](OC(N)=O)[C@@H](O)[C@H](Oc2ccc3c(O)c(NC(=O)c4ccc(O)c(CC=C(C)C)c4)c(=O)oc3c2C)OC1(C)C: inactive
Cc1cc(N)c2ccccc2[n+]1CCCCCCCCCC[n+]1c(C)cc(N)c2ccccc21: active
CC1=CC(=O)C(C(C)C)=CC1=O: active
COC(=O)C[C@H]1C(C)(C)[C@@H](O)[C@@H]2CC3=C4CC(O)O[C@@H](c5ccoc5)[C@]4(C)CCC3[C@@]1(C)C2=O (some centres undefined): inactive
COP(N)(=O)SC (centres undefined): inactive
COc1ccc(-c2cc(=O)c3c(O)cc(O)cc3o2)cc1: inactive
C[C@@H]1CC[C@@]23CCC4(C)[C@@](C=CC5[C@@]6(C)CC[C@H](O)C(C)(C)C6CC[C@]54C)(OC2=O)C3[C@H]1C (some centres undefined): active
COc1ccc(-c2cc(=O)c3c(O)c(OC)c(O[C@H]4O[C@H](CO[C@@H]5O[C@@H](C)[C@H](O)[C@@H](O)[C@H]5O)[C@@H](O)[C@H](O)[C@H]4O)cc3o2)cc1: inactive
CC(C)=CC1C(CO)C1(C)C (centres undefined): inactive
COc1ccc(-c2cc(=O)c3c(O)cc(O)c(-c4cc(-c5cc(=O)c6c(O)cc(O)cc6o5)ccc4OC)c3o2)cc1: inactive

Entry O=C(O)c1cc(O)ccc1O : call = ?
inactive

// query: C[C@@H]1CC[C@@]23CCC4(C)[C@@](C=CC5[C@@]6(C)CCC(=O)C(C)(C)C6CC[C@]54C)(OC2=O)C3[C@H]1C (some centres undefined)
inactive

Could you do the same for COc1cc(C)c2c(=O)c3c(O)cc(OC)cc3oc2c1 , please?
inactive

// next record CC(=O)O[C@@H]1CC2C(C)(CC[C@H](O)C2(C)C)C2CC[C@]3(C)C(=CC(=O)O[C@H]3c3ccoc3)C21C (some centres undefined)
inactive

Next up: CC(=O)N1CCN(c2ccc(OCC3CO[C@](Cn4ccnc4)(c4ccc(Cl)cc4Cl)O3)cc2)CC1 (some centres undefined)
active
